Experiment: Chemical stability of the compound in at pH 7.4 measured at 6 hrs by HPLC based non-enzymatic stability assay
Format: physicochemical
Conditions: buffer, read-out: Stability
observation-type: remaining at 6 h (%)
Expressed in %, but write only the number.

Here are 2 compounds together with their reported answers.
Nc1ncc(-c2ccc(S(=O)(=O)NCCCCC(=O)NCCCC#Cc3cccc4c3CN(C3CCC(=O)NC3=O)C4=O)cc2)nc1C(=O)Nc1ccccc1 (stereo not drawn)
102
Nc1ncc(-c2ccc(S(=O)(=O)NCCCCCCC(=O)NCCCC#Cc3cccc4c3CN(C3CCC(=O)NC3=O)C4=O)cc2)nc1C(=O)Nc1ccccc1 (stereo not drawn)
102

Switching to the query record.
What does the record list as remaining at 6 h for Nc1ncc(-c2ccc(S(=O)(=O)NCCCCCC(=O)N3CCN(c4ccc5c(c4)C(=O)N(C4CCC(=O)NC4=O)C5=O)CC3)cc2)nc1C(=O)Nc1ccccc1 (stereo not drawn) ?
101

----------
Here the recorded remaining at 72 h is given for each entry.
Assay: Chemical stability of the compound in at pH 7.4 measured at 72 hrs by HPLC based non-enzymatic stability assay
Assay type: physicochemical
Conditions: buffer, read-out: Stability
Expressed in %, but write only the number.

Here are 2 compounds together with their reported answers.
Cc1ncsc1-c1ccc(CNC(=O)[C@@H]2C[C@@H](O)CN2C(=O)[C@@H](NC(=O)CCCCCNS(=O)(=O)c2ccc(-c3cnc(N)c(-c4nnc(-c5ccccc5)o4)n3)cc2)C(C)(C)C)cc1
104
CNS(=O)(=O)c1ccc(-c2cnc(N)c(C(=O)Nc3ccccc3)n2)cc1
104

Switching to the query record.
What does the record list as remaining at 72 h for Nc1ncc(-c2ccc(S(=O)(=O)NCCOCCOCCC(=O)N3CCN(c4ccc5c(c4)C(=O)N(C4CCC(=O)NC4=O)C5=O)CC3)cc2)nc1C(=O)Nc1ccccc1 (stereo not drawn) ?
6

----------
Experiment: Chemical stability of the compound in at pH 7.4 measured at 12 hrs by HPLC based non-enzymatic stability assay
Type: physicochemical
Conditions: buffer, read-out: Stability
observation-type: remaining at 12 h (%)
Expressed in %, but write only the number.

Cc1ncsc1-c1ccc(CNC(=O)[C@@H]2C[C@@H](O)CN2C(=O)[C@@H](NC(=O)CCCCCNS(=O)(=O)c2ccc(-c3cnc(N)c(-c4nnc(-c5ccccc5)o4)n3)cc2)C(C)(C)C)cc1
100

What does the record list as remaining at 12 h for Nc1ncc(-c2ccc(S(=O)(=O)NCCCCCCCC(=O)NCCOc3ccc(C4CCC(=O)NC4=O)cc3)cc2)nc1C(=O)Nc1ccccc1 (stereo unspecified) ?
99

What does the record list as remaining at 12 h for Nc1ncc(-c2ccc(S(=O)(=O)NCCOCCOCCOCCC(=O)N3CCN(c4ccc5c(c4)C(=O)N(C4CCC(=O)NC4=O)C5=O)CC3)cc2)nc1C(=O)Nc1ccccc1 (stereo unspecified) ?
100

What does the record list as remaining at 12 h for `CNCc1ccc(-c2nnc(-c3nc(-c4ccc(S(=O)(=O)NCCCCCC(=O)N[C@H](C(=O)N5C[C@H](O)C[C@H]5C(=O)NCc5ccc(-c6scnc6C)cc5)C(C)(C)C)cc4)cnc3N)o2)cc1` ?
100

What does the record list as remaining at 12 h for Nc1ncc(-c2ccc(S(=O)(=O)NCCOCCOCCC(=O)N3CCN(c4ccc5c(c4)C(=O)N(C4CCC(=O)NC4=O)C5=O)CC3)cc2)nc1C(=O)Nc1ccccc1 (stereo unspecified) ?
95

What does the record list as remaining at 12 h for CNCc1ccc(-c2nnc(-c3nc(-c4ccc(S(=O)(=O)NCCCCCC(=O)N5CCN(c6ccc7c(c6)C(=O)N(C6CCC(=O)NC6=O)C7=O)CC5)cc4)cnc3N)o2)cc1 (stereo unspecified) ?
95
